# System: Escherichia coli TOP10
# protocol-text: shrunken log2 fold change of peptide-encoding DNA abundance (4.5 h post-induction vs induction); higher = less antimicrobial activity (less host growth inhibition)
# conditions-used: time post-induction: 4.5 h; library: site-saturation at positions 5, 18, 19, 20
// reported shrunken log2 fold change for each item listed
// return just the number, without any unit appended

Consider the worked cases shown below.
1) RRIRTRPPRLPRPRPRPHVCPRP = -0.04
2) RRIRNRPPRLPRPRPRPTNLPRP = -0.0193
3) RRIRARPPRLPRPRPRPRMCPRP = 0.339

# shrunken log2 fold change (sequence: `RRIRQRPPRLPRPRPRPTMFPRP` ) is -0.208

###

# Test system: Escherichia coli TOP10
# protocol-text: shrunken log2 fold change of peptide-encoding DNA abundance (4.5 h post-induction vs induction); higher = less antimicrobial activity (less host growth inhibition)
# conditions-used: time post-induction: 4.5 h; library: site-saturation at positions 5, 18, 19, 20
value-kind: shrunken log2 fold change
// return just the number, without any unit appended

1. RRIRSRPPRLPRPRPRPGQHPRP = 0.178
2. RRIRWRPPRLPRPRPRPDHFPRP = -0.0288
3. RRIRTRPPRLPRPRPRPDHIPRP = -0.242

# shrunken log2 fold change (sequence: `RRIRNRPPRLPRPRPRPWDIPRP` ) is -0.00804

# shrunken log2 fold change (sequence: `RRIRARPPRLPRPRPRPMQCPRP` ) is 0.0593

# shrunken log2 fold change (sequence: `RRIRGRPPRLPRPRPRPLHPPRP` ) is 0.697

# shrunken log2 fold change (sequence: `RRIRCRPPRLPRPRPRPGYAPRP` ) is 0.085

# shrunken log2 fold change (sequence: `RRIRWRPPRLPRPRPRPVEKPRP` ) is 0.234

# shrunken log2 fold change (sequence: `RRIRSRPPRLPRPRPRPHQYPRP` ) is -0.549

# shrunken log2 fold change (sequence: `RRIRMRPPRLPRPRPRPFFHPRP` ) is -0.243

# shrunken log2 fold change (sequence: `RRIRNRPPRLPRPRPRPRVIPRP` ) is -0.21

# shrunken log2 fold change (sequence: `RRIRDRPPRLPRPRPRPSNIPRP` ) is -0.182

# shrunken log2 fold change (sequence: `RRIRVRPPRLPRPRPRPSGRPRP` ) is 0.0291

# shrunken log2 fold change (sequence: `RRIRRRPPRLPRPRPRPMWSPRP` ) is 0.311

###

// reported shrunken log2 fold change for each item listed
# Test system: Escherichia coli TOP10;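 also: peptides expressed intracellularly from a pBAD plasmid library in pooled LB shake-flask culture, induced with 0.3% L-arabinose, DNA abundance read by NGS, three biological replicates, DESeq2 with apeglm shrinkage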
# protocol-text: shrunken log2 fold change of peptide-encoding DNA abundance (4.5 h post-induction vs induction); higher = less antimicrobial activity (less host growth inhibition)
# conditions-used: time post-induction: 4.5 h; library: site-saturation at positions 5, 18, 19, 20
// return just the number, without any unit appended

Consider the worked cases shown below.
1. RRIRCRPPRLPRPRPRPQSGPRP = -0.142
2. RRIRRRPPRLPRPRPRPNFSPRP = 0.211
3. RRIRNRPPRLPRPRPRPSFHPRP = -0.41

shrunken log2 fold change for Escherichia coli TOP10 with input `RRIRPRPPRLPRPRPRPATFPRP` equals -0.305

shrunken log2 fold change for Escherichia coli TOP10 with input `RRIRDRPPRLPRPRPRPDGSPRP` equals 0.0891

shrunken log2 fold change for Escherichia coli TOP10 with input `RRIRARPPRLPRPRPRPDFYPRP` equals 0.0576

shrunken log2 fold change for Escherichia coli TOP10 with input `RRIRKRPPRLPRPRPRPMGKPRP` equals -0.0982

shrunken log2 fold change for Escherichia coli TOP10 with input `RRIRCRPPRLPRPRPRPRTTPRP` equals 0.472

Sourced from the supplement of paper PMC9112550
